Tested on: PKMYT1
cond: concentration: 1 μM,replicates: in singlicate; n = 1;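 further: KINOMEscan kinase panel screen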
reported endpoint: %Inh (%)
Write it as a number; the unit % goes unstated.

Field: example entries. Status: answers known.
(Q) # %Inh lookup, item COC(=O)c1cccc(NC(=O)NC2CCN(c3ccnc(Nc4cc(OC)c(OC)c(OC)c4)n3)C2)c1 (centres unmarked) [GSK1379767]
(A) 6

(Q) What about "CC(=O)Nc1ccc(-c2cc3ncnc(SCC(=O)O)c3s2)cc1" ?
(A) 25

(Q) What about "O=C(Nc1cccc(Oc2ccc3nccn3n2)c1)Nc1cccc(C(F)(F)F)c1" ?
(A) 0

(Q) What about COc1cc2nccc(Nc3ccc(Oc4ccccc4)cc3)c2cc1OC.Cl [GI261656] ?
(A) 0

More entries:
(Q) # %Inh lookup, item CN1CCN(CCCNc2nccc(-c3c(-c4ccc(F)cc4)nn4cc(C(N)=O)ccc34)n2)CC1 [GW622475]
(A) 9

* * *

Tested on: SRMS
cond: concentration: 1 μM,replicates: in singlicate; n = 1
Measured %Inh of individual entries
Write it as a number; the unit % goes unstated.

Field: example entries. Status: answers known.
(Q) # %Inh lookup, item "Cn1ccc2ncnc(Oc3ccc(NC(=O)Nc4cncc(C(F)(F)F)c4)c(Cl)c3)c21"
(A) 0

(Q) What about "Cn1ccc2ncnc(Oc3ccc(NC(=O)Nc4cccc(C(F)(F)F)c4)c(F)c3)c21" ?
(A) 0

(Q) What about "O=C(Nc1cccc(Oc2ccc3nccn3n2)c1)Nc1cccc(C(F)(F)F)c1" ?
(A) 0

(Q) What about Cl.c1ccc(Oc2ccc(Nc3ccnc4cc(-c5ccc(CN6CCNCC6)o5)ccc34)cc2)nc1 [GW567142] ?
(A) 89

(Q) What about "OCCn1cc(-c2cnc3nnn(Cc4ccc5ncccc5c4)c3n2)cn1" ?
(A) 0

More entries:
(Q) # %Inh lookup, item "CS(=O)(=O)c1cccc(CNc2nc(Nc3ccc4c(c3)[C@@H]3C[C@@H]4CNC3=O)ncc2C(F)(F)F)c1"
(A) 0

(Q) What about CN1CCN(CCCNc2nccc(-c3c(-c4ccc(F)cc4)nn4cc(C(N)=O)ccc34)n2)CC1 [GW622475] ?
(A) 0

(Q) What about Cc1nnc(-c2ccc3occ(-c4ccc(S(C)=O)cc4)c3n2)o1 (centres unmarked) ?
(A) 0

(Q) What about "C[C@@H]1CNc2c(sc3ccc4nc(-c5ccc(O)cc5)ccc4c23)C(=O)N1" ?
(A) 0

(Q) What about CC(C)c1nc(-c2cccc(NS(=O)(=O)c3ccccc3)c2)c(-c2ccnc(Nc3ccc4c(c3)CN(C)CC4)n2)s1 [GSK1649598] ?
(A) 99.5

(Q) What about "CC(=O)Nc1ccc(-c2cc3ncnc(SCC(=O)O)c3s2)cc1" ?
(A) 13

(Q) What about "O=C(Nc1ccccc1)c1cccc(Oc2ccc3nccn3n2)c1" ?
(A) 0

(Q) What about Cc1n[nH]c2cc(Nc3ccnc(Nc4cccc(CN5CCOCC5)c4)n3)ccc12 [GW682569] ?
(A) 0

(Q) What about CCn1c(-c2nonc2N)nc2cncc(Br)c21 [SB-738004] ?
(A) 0

(Q) What about COc1cc2nccc(Nc3ccc(Oc4ccccc4)cc3)c2cc1OC.Cl [GI261656] ?
(A) 99.9

(Q) What about C[C@@H](Oc1cc(-n2cnc3cc(-c4ccncc4)ccc32)sc1C(N)=O)c1ccccc1Cl [GSK479719] ?
(A) 0

(Q) What about COC(=O)Nc1nc2cc(Oc3ccc(NC(=O)Nc4cc(C(F)(F)F)ccc4Cl)cc3)ccc2[nH]1.Cl [GW697465] ?
(A) 0

(Q) What about Cl.Nc1n[nH]c2cc(-c3ccccn3)ccc12 [GSK2189892] ?
(A) 0

(Q) What about "C[C@@H]1CNc2c(sc3ccc4nc(-c5ccncc5)ccc4c23)C(=O)N1" ?
(A) 0

(Q) What about COc1cc2c(Nc3ccc(NC(=O)c4ccccc4)cc3)ncnc2cc1OCCCN1CCOCC1 [GSK301329] ?
(A) 19

(Q) What about Cc1ccc2c(-c3ccnc(Nc4ccc(C(F)(F)F)cc4)n3)cnn2n1 [GW819776] ?
(A) 28

(Q) What about "O=C1NCCc2[nH]c(-c3ccncc3)cc21" ?
(A) 0

(Q) What about "Cn1ccc2ncnc(Oc3ccc(NC(=O)Nc4ccnc(C(F)(F)F)c4)c(Cl)c3)c21" ?
(A) 0

(Q) What about Cc1ccc(Nc2ccnc(Nc3ccc4c(c3)CS(=O)(=O)C4)n2)cc1O.Cl [GW579362] ?
(A) 87

(Q) What about CN(c1ccc2c(c1)nc(NCc1ccc(F)cc1)n2C)c1ccnc(Nc2ccc(CS(C)(=O)=O)cc2)n1.Cl [GW813244] ?
(A) 56

(Q) What about c1ccc(Oc2ccc(Nc3ccnc4ccc(-c5ccccn5)cc34)cc2)cc1 [GW407034] ?
(A) 94.9
